target: HPK1 (Homo sapiens, UniProt Q92918); construct: A HiBiT tag was introduced by CRISPR on the N terminus of HPK1 in Jurkat cells; host or cells: Jurkat cells (ATCC TIB-152), monoclonal line with CRISPR knock-in of HiBiT at the endogenous HPK1 locus; assay: HPK1 Cellular HiBit Degradation Assay; format: cell-based; settings: HiBiT HPK1 Jurkat cells, 24 hrs; concentration at which 50% of HPK1 was remaining; read-out: DC50 Category
Sequence (Q92918 whole entry): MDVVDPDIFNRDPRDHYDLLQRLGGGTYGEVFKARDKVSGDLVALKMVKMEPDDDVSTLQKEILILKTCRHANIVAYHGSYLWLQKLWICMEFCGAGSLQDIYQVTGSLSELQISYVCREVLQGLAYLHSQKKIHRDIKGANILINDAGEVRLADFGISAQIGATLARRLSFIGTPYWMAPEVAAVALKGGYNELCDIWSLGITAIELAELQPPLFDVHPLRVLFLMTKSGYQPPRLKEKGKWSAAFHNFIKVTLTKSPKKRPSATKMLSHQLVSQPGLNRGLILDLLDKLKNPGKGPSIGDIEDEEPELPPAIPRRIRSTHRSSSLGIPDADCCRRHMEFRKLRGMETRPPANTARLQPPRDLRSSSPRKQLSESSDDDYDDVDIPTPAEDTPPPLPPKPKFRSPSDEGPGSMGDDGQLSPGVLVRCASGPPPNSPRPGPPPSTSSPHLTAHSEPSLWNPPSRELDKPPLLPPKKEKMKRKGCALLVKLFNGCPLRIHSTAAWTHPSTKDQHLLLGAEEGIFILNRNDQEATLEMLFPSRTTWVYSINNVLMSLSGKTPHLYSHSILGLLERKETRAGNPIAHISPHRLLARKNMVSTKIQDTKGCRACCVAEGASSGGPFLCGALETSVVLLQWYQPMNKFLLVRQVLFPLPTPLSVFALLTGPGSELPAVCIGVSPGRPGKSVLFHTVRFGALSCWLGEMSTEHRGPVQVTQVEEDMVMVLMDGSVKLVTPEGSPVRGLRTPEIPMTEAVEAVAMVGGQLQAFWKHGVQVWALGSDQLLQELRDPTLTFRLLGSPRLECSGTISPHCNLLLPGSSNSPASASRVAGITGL
Give DC50 for every item shown.

Field: example entries. Status: answers known.
INSERT INTO measurements (molecule, readout_name, measurement) VALUES
  ('CC(C)n1cnc2cc(-c3ccc4c(c3)N([C@H]3C[C@@H](N5CCCCC5)C3)C(=O)C43CCN(C(=O)C4(C#N)CCN(C(=O)C5CCN(c6ccc(C7CCC(=O)NC7=O)cc6)CC5)CC4)CC3)nc(NC3CC3)c21 (mixture of isomers)', 'DC50', '< 100 nM'),
  ('CC(C)n1cnc2cc(-c3ccc4c(c3)N([C@H]3C[C@@H](N5CCCCC5)C3)C(=O)C43CCN(C(=O)C4CCN(C(=O)C5CCN(c6ccc(C7CCC(=O)NC7=O)cn6)CC5)CC4)CC3)nc(NC3CC3)c21 (stereo partly shown)', 'DC50', '100 to 500 nM'),
  ('CC(C)n1cnc2cc(-c3ccc4c(c3)N([C@H]3C[C@@H](N5CCCCC5)C3)C(=O)C43CCN(C(=O)C4(C)CCN(C(=O)C5CCN(c6ccc(C7CCC(=O)NC7=O)cn6)CC5)CC4)CC3)nc(Oc3ccccc3F)c21 (stereo partly shown)', 'DC50', '100 to 500 nM');

Please examine the following record next.
For the record CC(C)n1cnc2cc(-c3ccc4c(c3)N([C@H]3C[C@@H](N5CCCCC5)C3)C(=O)C43CCN(C(=O)[C@@H]4CCN(C(=O)C5CCN(c6ccc(N7CCC(=O)NC7=O)cc6)CC5)C4)CC3)nc(NC3CC3)c21 , what value of DC50 is listed for HPK1 (Homo sapiens, UniProt Q92918)?
< 100 nM

These measurements were taken from patent US12091426B2.
